# Subject of test: T1, huCD3e-mFc (human, UniProt P07766 23-126)
# T1 construct: not shown: mFc, not described
# Measurement description: Pool 3 screen, R2
Measurement name: pKd
The meaning of pKd here: minus log10 of the concentration in molar units.

Example binders with recorded pKd:
Exam item: Fill in: pKd of AC3797 (CD3.293) (scFv, V domains shown, Pool 3 format (remarks)) VH: EVQLVESGGGIVQPGGSLRLSCAASGFTFSTYAMNWVRQAPGKGLEWVGRIRTKRNNYATYYADSVKGRFTISRDDSKNTVYLQMNSLKTEDTAVYYCVRHENFGNSYVSWFAHWGQGTLVTVSS VL: ELVVTQEPSLTVSPGGTVTLTCRSSNGAVTSSNYANWVQQKPGQAPRGLIGGTNKRAPGTPARFSGSALGGKAALTLSGVQPEDEAVYYCALWYPNLWVFGGGTKLTVL is ___
Marked response: 8.43

Exam item: Now consider AC3803 (CD3.299) (scFv, V domains shown, Pool 3 format (remarks)) VH: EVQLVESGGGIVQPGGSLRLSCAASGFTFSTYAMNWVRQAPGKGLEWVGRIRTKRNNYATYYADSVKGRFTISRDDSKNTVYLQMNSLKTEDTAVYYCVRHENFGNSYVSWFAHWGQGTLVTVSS VL: ELVVTQEPSLTVSPGGTVTLTCRSSNGAVTSSNYANWVQQKPGQAPRGLIGGTNKRAPGTPARFSGSLLGGKAGLTLSGVQPEDEAVYYCALWYPNLWVFGGGTKLTVL .
Marked response: 8.10

Exam item: Now consider AC3850 (CD3.346) (scFv, V domains shown, Pool 3 format (remarks)) VH: EVQLVESGGGIVQPGGSLRLSCAASGFTFSTYAMNWVRQAPGKGLEWVGRIRTKTNNYATYYADSVKGRFTISRDDSKNTVYLQMNSLKTEDTAVYYCVRHENFGNSYVSWFAHWGQGTLVTVSS VL: ELVVTQEPSLTVSPGGTVTLTCRSSNGAVTSSNYANWVQQKPGQAPRGLIGGTNKRAPGTPARFSGSLLGGKAALTLSGVQPEDEAVYYCALWYPNLWVFGGGTKLTVL .
Marked response: 7.97

Exam item: Now consider AC3796 (CD3.292) (scFv, V domains shown, Pool 3 format (remarks)) VH: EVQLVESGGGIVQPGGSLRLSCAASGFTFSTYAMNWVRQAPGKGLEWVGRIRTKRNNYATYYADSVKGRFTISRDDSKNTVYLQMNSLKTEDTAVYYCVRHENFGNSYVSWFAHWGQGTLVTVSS VL: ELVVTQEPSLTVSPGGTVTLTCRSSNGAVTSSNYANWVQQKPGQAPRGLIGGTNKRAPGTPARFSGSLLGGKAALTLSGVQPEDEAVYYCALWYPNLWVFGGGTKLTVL .
Marked response: 8.39

Now take the following binder into account.
Exam item: Fill in: pKd of AC3886 (CD3.382) (scFv, V domains shown, Pool 3 format (remarks)) VH: EVQLVESGGGIVQPGGSLRLSCAASGFTFSTYAMNWVRQAPGKGLEWVGRIRTKRNNYATYYADSVKGRFTISRDDSKNTVYLQMNSLKTEDTAVYYCVRHENFGNAYVSWFAHWGQGTLVTVSS VL: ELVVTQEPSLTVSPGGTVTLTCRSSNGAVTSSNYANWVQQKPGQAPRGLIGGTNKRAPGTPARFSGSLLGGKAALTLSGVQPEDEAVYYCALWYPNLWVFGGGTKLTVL is ___
Marked response: 7.67

Sourced from patent US20260167728A1
